biological target: CD71 on SK-BR-3 cells (human, UniProt P02786 1-760); assay: cell-based or functional assay
Sequence (P02786 whole entry): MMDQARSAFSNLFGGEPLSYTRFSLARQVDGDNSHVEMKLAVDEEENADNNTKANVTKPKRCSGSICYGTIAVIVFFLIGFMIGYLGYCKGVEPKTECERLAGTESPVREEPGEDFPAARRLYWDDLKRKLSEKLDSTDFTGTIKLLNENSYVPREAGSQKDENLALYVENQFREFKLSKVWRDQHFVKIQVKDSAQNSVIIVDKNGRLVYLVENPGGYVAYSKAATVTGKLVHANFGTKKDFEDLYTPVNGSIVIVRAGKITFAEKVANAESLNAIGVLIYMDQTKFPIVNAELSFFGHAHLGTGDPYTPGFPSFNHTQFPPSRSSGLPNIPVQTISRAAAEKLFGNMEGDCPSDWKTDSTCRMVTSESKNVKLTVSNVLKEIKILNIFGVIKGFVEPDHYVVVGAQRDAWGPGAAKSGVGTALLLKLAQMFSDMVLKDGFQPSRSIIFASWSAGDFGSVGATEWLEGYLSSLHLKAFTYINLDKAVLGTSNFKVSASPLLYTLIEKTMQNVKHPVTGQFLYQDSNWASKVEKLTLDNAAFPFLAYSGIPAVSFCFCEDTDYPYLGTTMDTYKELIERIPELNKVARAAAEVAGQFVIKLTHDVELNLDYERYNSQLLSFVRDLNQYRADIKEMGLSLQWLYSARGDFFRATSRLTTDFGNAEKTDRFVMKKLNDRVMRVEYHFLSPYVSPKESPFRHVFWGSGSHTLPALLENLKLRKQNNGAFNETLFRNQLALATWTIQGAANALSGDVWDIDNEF
Answer each item with its documented IC50, SKBR-3 viability, MMAF conjugate, first unlabelled column (+/- human transferrin).
Numeric answer only, unit nM assumed.

The binder identified as SEQ ID NO 115 (designed binder, FN3 domain) MLPAPKNLVVSRVTEDSARLSWTAPDAAFDSFFIGYLEPQPPGEAIVLTVPGSERSYDLTGLKPGTEYNVTIQGVKGGFPSMPLSAIFTTT registered its IC50, SKBR-3 viability, MMAF conjugate, first unlabelled column (+/- human transferrin) at 24.2

The binder identified as SEQ ID NO 146 (designed binder, FN3 domain) MLPAPKNLVVSRVTEDSARLSWTAPDAAFDSFYIAYAEPRPDGEAIVLTVPGSERSYDLTGLKPGTEYSVLIHGVKGGLLSSPLSAIFTT registered its IC50, SKBR-3 viability, MMAF conjugate, first unlabelled column (+/- human transferrin) at 7.13

The binder identified as SEQ ID NO 237 (designed binder, FN3 domain) MLPAPKNLVVSRVTEDSARLSWTAPDAAFDSFTILYGEMGTTGEAIVLTVPGSERSYDLTGLKPGTEYDVFIEGVKGGELSWPLSAIFTT registered its IC50, SKBR-3 viability, MMAF conjugate, first unlabelled column (+/- human transferrin) at 28.1

The binder identified as SEQ ID NO 233 (designed binder, FN3 domain) MLPAPKNLVVSRVTEDSARLSWTAPDAAFDSFYIVYAEPIPNGEAIVLTVPGSERSYDLTGLKPGTEYSVLIHGVKGGRNSDPLSAIFTT registered its IC50, SKBR-3 viability, MMAF conjugate, first unlabelled column (+/- human transferrin) at 54.6
